These data points were gathered from ChEMBL document CHEMBL1144388.

A set of compounds tested on Carbonic anhydrases; II & IX (Homo sapiens, UniProt P00918+Q16790), with measured Ki:
The answer is to be given in Ratio; state only the numeric part.

{"SMILES_STRING": "CN1CCN(CC/N=C(\\S)Nc2ccc(S(=O)(=O)NCc3ccc(S(N)(=O)=O)cc3)cc2)CC1", "READING": 2.06}
{"SMILES_STRING": "CN(C)CC/N=C(\\S)Nc1ccc(S(=O)(=O)NCc2ccc(S(N)(=O)=O)cc2)cc1", "READING": 2.22}
{"SMILES_STRING": "NS(=O)(=O)c1ccc(CC/N=C(\\S)Nc2ccc(S(=O)(=O)NCc3ccc(S(N)(=O)=O)cc3)cc2)cc1", "READING": 10}
{"SMILES_STRING": "CN1CCN(CC/N=C(\\S)Nc2ccc(S(=O)(=O)Nc3ccc(S(N)(=O)=O)cc3)cc2)CC1", "READING": 1.5}
{"SMILES_STRING": "CN(C)CC/N=C(\\S)Nc1ccc(S(=O)(=O)NCCc2ccc(S(N)(=O)=O)cc2)cc1", "READING": 1.65}

**Query** Tell me the measured Ki of `NS(=O)(=O)c1ccc(CNS(=O)(=O)c2ccc(N/C(S)=N/CCN3CCOCC3)cc2)cc1` , please.
**Result** 45.83

**Query** Tell me the measured Ki of `NS(=O)(=O)c1ccc(NS(=O)(=O)c2ccc(N/C(S)=N/CCN3CCOCC3)cc2)cc1` , please.
**Result** 32.14

**Query** Tell me the measured Ki of `CN(C)CC/N=C(\S)Nc1ccc(S(=O)(=O)Nc2ccc(S(N)(=O)=O)cc2)cc1` , please.
**Result** 1.2

----------
A set of compounds tested on UniProtKB P00918, with measured Ki:
The answer is to be given in nM; state only the numeric part.

{"SMILES_STRING": "NS(=O)(=O)c1ccc(CNS(=O)(=O)c2ccc(NC(=S)NCc3ccccn3)cc2)cc1", "MEASURE": "Ki", "READING": 290}

**Query** Kindly state the measured Ki obtained for `CN1CCN(CC/N=C(\S)Nc2ccc(S(=O)(=O)Nc3ccc(S(N)(=O)=O)cc3)cc2)CC1` with UniProtKB P00918.
**Result** 7.2

**Query** Kindly state the measured Ki obtained for `CN1CCN(CC/N=C(\S)Nc2ccc(S(=O)(=O)NCc3ccc(S(N)(=O)=O)cc3)cc2)CC1` with UniProtKB P00918.
**Result** 10.3

**Query** Kindly state the measured Ki obtained for `CN(C)CC/N=C(\S)Nc1ccc(S(=O)(=O)NCc2ccc(S(N)(=O)=O)cc2)cc1` with UniProtKB P00918.
**Result** 12

----------
Target: Carbonic anhydrase 2 (Homo sapiens)
The following molecules are shown together with reported pKi values.
Please treat pKi as minus the base-10 logarithm of the molar concentration.

{"SMILES_STRING": "NS(=O)(=O)c1ccc(CNS(=O)(=O)c2ccc(NC(=S)NN3CCOCC3)cc2)cc1", "TEST_TARGET": "Carbonic anhydrase 2 (Homo sapiens)", "pKi": 6.56}
{"SMILES_STRING": "NS(=O)(=O)c1ccc(NS(=O)(=O)c2ccc(N/C(S)=N/CCN3CCOCC3)cc2)cc1", "TEST_TARGET": "Carbonic anhydrase 2 (Homo sapiens)", "pKi": 6.74}
{"SMILES_STRING": "NS(=O)(=O)c1ccc(CNS(=O)(=O)c2ccc(N/C(S)=N/CCN3CCOCC3)cc2)cc1", "TEST_TARGET": "Carbonic anhydrase 2 (Homo sapiens)", "pKi": 6.66}

**Query** Kindly state the measured pKi obtained for `CN(C)CC/N=C(\S)Nc1ccc(S(=O)(=O)Nc2ccc(S(N)(=O)=O)cc2)cc1` with Carbonic anhydrase 2 (Homo sapiens).
**Result** 8.09

**Query** Kindly state the measured pKi obtained for `NS(=O)(=O)c1ccc(CNS(=O)(=O)c2ccc(NC(=S)NCCc3ccccc3)cc2)cc1` with Carbonic anhydrase 2 (Homo sapiens).
**Result** 6.19
